molecular target: human ROCK I (Homo sapiens)
Sequence (Q13464 whole entry): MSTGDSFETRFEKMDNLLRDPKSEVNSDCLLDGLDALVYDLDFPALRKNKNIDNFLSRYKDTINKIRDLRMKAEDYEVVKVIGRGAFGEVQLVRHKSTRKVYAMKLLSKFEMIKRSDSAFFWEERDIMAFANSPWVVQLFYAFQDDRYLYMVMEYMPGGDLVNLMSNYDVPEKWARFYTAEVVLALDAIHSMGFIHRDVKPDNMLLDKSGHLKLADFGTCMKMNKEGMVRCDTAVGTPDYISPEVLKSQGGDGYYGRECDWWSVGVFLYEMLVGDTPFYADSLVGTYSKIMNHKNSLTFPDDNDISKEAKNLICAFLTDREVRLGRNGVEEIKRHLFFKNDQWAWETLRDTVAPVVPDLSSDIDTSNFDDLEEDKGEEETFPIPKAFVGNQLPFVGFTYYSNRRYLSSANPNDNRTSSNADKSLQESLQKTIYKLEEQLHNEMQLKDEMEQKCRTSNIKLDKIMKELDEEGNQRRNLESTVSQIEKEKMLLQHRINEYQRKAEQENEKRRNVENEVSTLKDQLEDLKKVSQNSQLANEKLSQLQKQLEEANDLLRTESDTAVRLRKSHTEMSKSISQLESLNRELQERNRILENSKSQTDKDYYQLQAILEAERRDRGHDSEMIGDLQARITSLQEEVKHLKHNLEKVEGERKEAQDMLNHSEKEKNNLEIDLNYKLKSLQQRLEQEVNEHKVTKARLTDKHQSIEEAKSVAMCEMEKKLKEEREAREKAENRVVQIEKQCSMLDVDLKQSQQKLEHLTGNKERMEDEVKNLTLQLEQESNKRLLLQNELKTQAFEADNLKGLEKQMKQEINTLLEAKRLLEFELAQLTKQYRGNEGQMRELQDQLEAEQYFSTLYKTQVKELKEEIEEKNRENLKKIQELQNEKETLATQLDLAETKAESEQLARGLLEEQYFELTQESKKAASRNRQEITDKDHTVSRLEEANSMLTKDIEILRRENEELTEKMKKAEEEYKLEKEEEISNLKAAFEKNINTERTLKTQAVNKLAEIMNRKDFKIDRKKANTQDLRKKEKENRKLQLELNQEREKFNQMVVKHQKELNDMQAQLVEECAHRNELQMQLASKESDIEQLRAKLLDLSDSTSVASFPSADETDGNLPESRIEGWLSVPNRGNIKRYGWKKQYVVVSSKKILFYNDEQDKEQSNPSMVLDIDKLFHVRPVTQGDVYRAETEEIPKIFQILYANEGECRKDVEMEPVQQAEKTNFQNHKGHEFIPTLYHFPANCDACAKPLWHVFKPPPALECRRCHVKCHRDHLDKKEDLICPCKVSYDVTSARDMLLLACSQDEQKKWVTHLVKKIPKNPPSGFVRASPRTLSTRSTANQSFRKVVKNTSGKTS
pIC50: −log10 of the molar value. Where a name gives a salt, the structure may show the parent alone.
Note to self: values exactly at 8 are Yes. So pIC50 at or above 8 is Yes, below is No.

I'd appreciate it if you could say whether COc1nc(N[C@H]2CC[C@H](N)CC2)ccc1C(N)=O [Example 1, dihydrochloride] has pIC50 at least equal to 8.
Yes

I'd appreciate it if you could say whether COc1nc(N[C@H]2CC[C@H](N)CC2)c(Cl)cc1C(N)=O has pIC50 at least equal to 8.
Yes

I'd appreciate it if you could say whether COc1nc(N[C@H]2CC[C@H](N)CC2)c(F)cc1C(N)=O [Example 2, dihydrochloride] has pIC50 at least equal to 8.
Yes

I'd appreciate it if you could say whether COc1nc(N[C@H]2CC[C@H](N)CC2)c(Br)cc1C(N)=O has pIC50 at least equal to 8.
No

###

Structures can show the parent of a compound that is named as a salt.
Field: IC50. Provide a value for each of the compounds that follow.
The answer is to be given in nM; state only the numeric part.

Item: COc1nc(N[C@H]2CC[C@H](NC3CCS(=O)(=O)CC3)CC2)c(F)cc1C(N)=O Test system: UniProtKB Q13464 Read-out: IC50 Value: ?
7

Item: CCOc1nc(N[C@H]2CC[C@H](N)CC2)ccc1C(N)=O [Example 6, dihydrochloride] Test system: UniProtKB Q13464 Read-out: IC50 Value: ?
10

Item: CCOc1nc(N[C@H]2CC[C@H](N)CC2)c(F)cc1C(N)=O [Example 7, dihydrochloride] Test system: UniProtKB Q13464 Read-out: IC50 Value: ?
9

# credit: patent US20110166161A1
